FYI, the data here is from paper PMC4867230.

experimental system: apurinic/apyrimidinic endonuclease 1 (APE1) (Homo sapiens)
Sequence (P27695 whole entry): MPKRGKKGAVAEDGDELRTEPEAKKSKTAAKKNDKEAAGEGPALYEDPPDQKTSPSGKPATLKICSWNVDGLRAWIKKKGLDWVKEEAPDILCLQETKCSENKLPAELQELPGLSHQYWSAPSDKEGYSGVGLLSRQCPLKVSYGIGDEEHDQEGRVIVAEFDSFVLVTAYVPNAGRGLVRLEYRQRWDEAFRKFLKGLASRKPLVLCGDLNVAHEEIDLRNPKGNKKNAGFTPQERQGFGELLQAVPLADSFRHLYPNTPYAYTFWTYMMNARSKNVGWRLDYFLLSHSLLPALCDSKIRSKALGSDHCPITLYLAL
assay: kinetic fluorescence endonuclease assay, purified enzyme
measured endpoint: EC50 (nM)
Just the number in nM, nothing appended.

So what's the measured EC50 for this one? O=C(NCCO[N+](=O)[O-])c1cccnc1
820

* * *

experimental system: R177A APE1 (Homo sapiens, UniProt P27695, R177A)
Sequence (P27695 whole entry R177A): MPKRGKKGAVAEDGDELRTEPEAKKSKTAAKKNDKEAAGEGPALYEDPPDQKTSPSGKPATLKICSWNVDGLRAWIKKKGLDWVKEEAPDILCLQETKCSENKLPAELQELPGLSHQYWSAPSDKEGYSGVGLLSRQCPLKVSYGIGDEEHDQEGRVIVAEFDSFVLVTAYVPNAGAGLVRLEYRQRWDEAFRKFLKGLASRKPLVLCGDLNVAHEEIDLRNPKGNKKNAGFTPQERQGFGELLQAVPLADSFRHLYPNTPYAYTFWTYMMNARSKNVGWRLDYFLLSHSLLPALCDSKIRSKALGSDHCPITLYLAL
assay: kinetic fluorescence endonuclease assay, purified enzyme
measured endpoint: EC50

So what's the measured EC50 for this one? O=C(NCCO[N+](=O)[O-])c1cccnc1 [nicorandil]
2200 nM
